- Test system: Ruminococcus gnavus DSM 108212
- assay-info: growth (OD595) fold change vs plate DMSO controls (fold change (ratio)); higher = more growth
- condition: incubation time: 27 h, anaerobic, 37 °C
Counter-ions that a name gives are not always drawn.
assay-metric: growth
Please respond with just the number, no unit label.

Prompt: growth for OC[C@@H](O)[C@@H](O[C@H]1O[C@H](CO)[C@@H](O)[C@H](O)[C@H]1O)[C@H](O)[C@@H](O)CO [Maltitol] (50 µM) ?
Response: 0.976

Prompt: Try the compound c1ccc2c(c1)Cc1ccccc1-2 [Fluorene] (20 µM)
Response: 1.09

Prompt: Try the compound CC(C(=O)O)c1ccc(N2Cc3ccccc3C2=O)cc1 (centres undefined) [Indoprofen] (20 µM)
Response: 1.01

Prompt: Try the compound CC(C)Cn1cnc2c(N)nc3ccccc3c21 [Imiquimod] (20 µM)
Response: 0.323

Prompt: Try the compound CCOc1ccc(Cc2nccc3cc(OCC)c(OCC)cc23)cc1OCC [Ethaverine hydrochloride] (20 µM)
Response: 1.05

Prompt: Try the compound O=C(O)c1cccnc1Nc1cccc(C(F)(F)F)c1 [Niflumic acid] (20 µM)
Response: 1.32

Prompt: Try the compound Cc1ncc([N+](=O)[O-])n1CCO [Metronidazole] (20 µM)
Response: 0.0847

Prompt: Try the compound O=C1CN2Cc3c(ccc(Cl)c3Cl)N=C2N1 [Anagrelide] (20 µM)
Response: 1.14

Prompt: Try the compound CCCCC(CC)CNC(=N)NC(=N)NCCCCCCNC(=N)NC(=N)NCC(CC)CCCC (centres undefined) [Alexidine dihydrochloride] (20 µM)
Response: 0.624

---

- Tested on: Clostridium sporogenes DSM 1664
- assay-info: growth (OD595) fold change vs plate DMSO controls (fold change (ratio)); higher = more growth
- condition: incubation time: 27 h, anaerobic, 37 °C
Where a name gives a salt, the structure may show the parent alone.
Provide the recorded growth for the entries that follow.

Prompt: growth for COC(=O)[C@H](Cc1ccccc1)NC(=O)[C@H](CC(=O)O)NCCC(C)(C)C [Neotame] (50 µM) ?
Response: 1.05

Prompt: Try the compound NC(=O)c1cn(Cc2c(F)cccc2F)nn1 [Rufinamide] (20 µM)
Response: 0.904

Prompt: Try the compound OC[C@H]1OC(O)[C@H](O)[C@@H](O)[C@@H]1O (stereo partly drawn) [Glucose/Dextrose] (50 µM)
Response: 1.15

Prompt: Try the compound CC(C)NCC(O)COc1ccc(CCOCC2CC2)cc1 (stereo not drawn) [Betaxolol hydrochloride] (20 µM)
Response: 1.11

Prompt: Try the compound COC(=O)Nc1nc2cc(Sc3ccccc3)ccc2[nH]1 [Fenbendazole] (20 µM)
Response: 1

Prompt: Try the compound Cc1ccc(C(C)NC(=O)[C@@H](NC(=O)OC(C)C)C(C)C)cc1 (stereo partly drawn) (20 µM)
Response: 1.07

Prompt: Try the compound OC[C@H]1O[C@@H](O[C@@H]2[C@@H](CO)OC(O)(CO)[C@H]2O)[C@H](O)[C@@H](O)[C@H]1O (mixture of isomers) [Lactulose] (50 µM)
Response: 1.06

Prompt: Try the compound CN(C)CCCN1c2ccccc2CCc2ccc(Cl)cc21 [Clomipramine hydrochloride] (20 µM)
Response: 1.07

---

- System: Escherichia coli IAI1
- assay-info: growth (OD595) fold change vs plate DMSO controls (fold change (ratio)); higher = more growth
- condition: incubation time: 27 h, anaerobic, 37 °C
Structures can show the parent of a compound that is named as a salt.
assay-metric: growth
Please respond with just the number, no unit label.

Prompt: growth for CC[N+](C)(CC)CCOC(=O)C1c2ccccc2Oc2ccccc21 [Methantheline bromide] (20 µM) ?
Response: 1.01

Prompt: Try the molecule Cc1cc(=O)oc2cc(O)ccc12 [Hymecromone] (20 µM)
Response: 1.04

Prompt: Try the molecule CNCCCC12CCC(c3ccccc31)c1ccccc12 [Maprotiline hydrochloride] (20 µM)
Response: 1.01

Prompt: Try the molecule O=C(CO)[C@@H](O)[C@@H](O)[C@H](O)CO [D-Tagatose] (50 µM)
Response: 1.01

Prompt: Try the molecule O=C(NCCNCC(O)COc1ccc(O)cc1)N1CCOCC1 (stereo not given) [Xamoterol hemifumarate] (20 µM)
Response: 0.989

Prompt: Try the molecule CCCCc1ccc2[nH]c(NC(=O)OC)nc2c1 [Parbendazole] (20 µM)
Response: 1.04

Prompt: Try the molecule CN1CCCCC1CCN1c2ccccc2Sc2ccc([S+](C)[O-])cc21 (stereo not given) [Mesoridazine besylate] (20 µM)
Response: 0.991

Prompt: Try the molecule CC(C)Cc1ccc([C@H](C)C(=O)O)cc1 [(S,+) Ibuprofen] (20 µM)
Response: 0.797

Prompt: Try the molecule CS(=O)(=O)c1ccc([C@@H](O)[C@@H](CF)NC(=O)C(Cl)Cl)cc1 [Florfenicol] (20 µM)
Response: 0.0375

Prompt: Try the molecule CNCCC(Oc1ccc(C(F)(F)F)cc1)c1ccccc1 (stereo not given) [Fluoxetine hydrochloride] (20 µM)
Response: 1.02

Prompt: Try the molecule CC1=C(C)C(=O)C(C(CCCCCC(=O)O)c2ccccc2)=C(C)C1=O (stereo not given) [Seratrodast] (20 µM)
Response: 0.998

Prompt: Try the molecule CN[C@@H]1[C@H](O)[C@H](NC)[C@H]2O[C@@]3(O)C(=O)C[C@@H](C)O[C@H]3O[C@@H]2[C@H]1O [Spectinomycin dihydrochloride] (20 µM)
Response: 0.864

Prompt: Try the molecule CN[C@@H]1[C@@H](O)[C@@H](O[C@@H]2[C@@H](O)[C@H](O[C@H]3OC(CN)=CC[C@H]3N)[C@@H](N)C[C@H]2N)OC[C@]1(C)O [Sisomicin sulfate] (20 µM)
Response: 0.99

Prompt: Try the molecule COC(=O)C1=C(C)NC(C)=C(C(=O)O[C@H]2CCN(Cc3ccccc3)C2)[C@H]1c1cccc([N+](=O)[O-])c1 [Barnidipine Hydrochloride] (20 µM)
Response: 1.08

Prompt: Try the molecule COc1cc(C(=O)OCCCN2CCCN(CCCOC(=O)c3cc(OC)c(OC)c(OC)c3)CC2)cc(OC)c1OC [Dilazep dihydrochloride] (20 µM)
Response: 1.07

---

Provide the recorded growth for the entries that follow.
- System: Klebsiella aerogenes DSM 30053
- assay-info: growth (OD595) fold change vs plate DMSO controls (fold change (ratio)); higher = more growth
- condition: incubation time: 27 h, anaerobic, 37 °C
Where a name gives a salt, the structure may show the parent alone.
Please respond with just the number, no unit label.

Prompt: growth for C#CCN[C@@H]1CCc2ccccc21 [Rasagiline] (20 µM) ?
Response: 0.993

Prompt: Try the compound c1ccc(CC2=NCCN2)cc1 [Tolazoline hydrochloride] (20 µM)
Response: 0.977

Prompt: Try the compound CC(C)(C)NC[C@H](O)c1ccc(O)c(CO)c1 [Levalbuterol hydrochloride] (20 µM)
Response: 1.01

Prompt: Try the compound O=C1OC(c2ccc(O)cc2)(c2ccc(O)cc2)c2ccccc21 [Phenolphthalein] (20 µM)
Response: 0.993

Prompt: Try the compound C[C@@H](NCCCc1cccc(C(F)(F)F)c1)c1cccc2ccccc12 [Cinacalcet hydrochloride] (20 µM)
Response: 1.03

Prompt: Try the compound Cc1nnc(NS(=O)(=O)c2ccc(N)cc2)s1 [Sulfamethizole] (20 µM)
Response: 1.06

Prompt: Try the compound CCN(CC)C(=O)C1(c2ccccc2)CC1CN (stereo not drawn) [Milnacipran hydrochloride] (20 µM)
Response: 1.03

Prompt: Try the compound CC(C)(C)NC(=O)[C@H]1CC[C@H]2[C@@H]3CC[C@H]4NC(=O)C=C[C@]4(C)[C@H]3CC[C@]12C [Finasteride] (20 µM)
Response: 1.05

---

- Tested on: Clostridium sporogenes DSM 1664
- assay-info: fold change of Tryptamine concentration vs plate DMSO controls (fold change (ratio)); higher = more amine produced, active = hit call of the paper (significant change in both replicates, either direction);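 for the amine columns active = adjusted P below 0.05 in both replicates with a change the same way and a mean fold change under 0.8 or over 1.25; inactive = the rest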
- condition: incubation time: 27 h, anaerobic, 37 °C
Outcomes you can answer with include only these: active, inactive

Prompt: # outcome recorded in this test, key = O=c1[nH]c(=O)n([C@H]2C[C@H](O)[C@@H](CO)O2)cc1F [Floxuridine] (20 µM)
Response: inactive

Prompt: Try the compound CCCc1nc2c(C)cc(-c3nc4ccccc4n3C)cc2n1Cc1ccc(-c2ccccc2C(=O)O)cc1 [Telmisartan] (20 µM)
Response: inactive

Prompt: Try the compound Cc1nc2ccccc2n1Cc1ccc(Cl)cc1 [Chlormidazole] (20 µM)
Response: inactive

Prompt: Try the compound C[N+](C)(CCOc1ccccc1)Cc1ccccc1.O=C([O-])c1cc2ccccc2cc1O [Bephenium hydroxynaphthoate] (20 µM)
Response: inactive

Prompt: Try the compound COC(=O)C1=C(C#N)NC(C)=C(C(=O)OC(C)C)C1c1cccc([N+](=O)[O-])c1 (configuration not stated) [Nilvadipine] (20 µM)
Response: inactive

Prompt: Try the compound COC(=O)C1=C(C)NC(C)=C(C(=O)OCC(C)C)C1c1ccccc1[N+](=O)[O-] (configuration not stated) [Nisoldipine] (20 µM)
Response: inactive

Prompt: Try the compound N[C@@H](C(=O)N[C@@H]1C(=O)N2C(C(=O)O)=C(Cl)CC[C@H]12)c1ccccc1 [Loracarbef] (20 µM)
Response: active
